Taken from paper PMC10693281.

assay comment: Pharmacokinetic study, single i.v. injection
Type: in vivo, Wistar rats
experimental parameters: male, Wistar, rat, plasma, iv, 10 mg/kg
measurement kind: AUC(0-inf)

[[record]]
chemical_structure = "COc1cc2ncnc(Nc3ccc(F)c(Cl)c3)c2cc1OCCCN1CCOCC1"
recorded_result = "41100 ng·h/mL"


###

assay comment: Pharmacokinetic study, single i.v. injection
Assay type: in vivo, Wistar rats
experimental parameters: male, Wistar, rat, plasma, iv, 10 mg/kg
measurement kind: MRT inf (h)

[[record]]
chemical_structure = "COc1cc2ncnc(Nc3ccc(F)c(Cl)c3)c2cc1OCCCN1CCOCC1"
measurement_kind = "MRT inf"
recorded_result = 12.2

